Just for reference, the MegaScale stability set (Tsuboyama et al. 2023) is where these values come from.

B1: EEHEE_rd4_0003 (parent)
chain: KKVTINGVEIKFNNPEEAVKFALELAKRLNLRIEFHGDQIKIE

Variants of: B1
Assay: folding stability dG (cDNA display proteolysis); higher = more stable
Conditions: PBS, room temperature
Documented folding stability dG across a set of variants

A selection of reference data follows.
L23Q | 2.13 kcal/mol
K2C | 3.4 kcal/mol
R32K | 2.54 kcal/mol
E34T | 2.86 kcal/mol
A22C | 2.79 kcal/mol
I5K | 1.54 kcal/mol
E16T | 2.46 kcal/mol
E34I | 2.93 kcal/mol
R28S | 2.35 kcal/mol
I10K | 1.83 kcal/mol

Asked: Look up folding stability dG for this variant: Q39N
Given back: 2.82 kcal/mol

Asked: Look up folding stability dG for this variant: N13V
Given back: 2.46 kcal/mol

Asked: Look up folding stability dG for this variant: E9N
Given back: 2.19 kcal/mol

Asked: Look up folding stability dG for this variant: H36W
Given back: 2.73 kcal/mol

Asked: Look up folding stability dG for this variant: E9I
Given back: 2.85 kcal/mol

Asked: Look up folding stability dG for this variant: K20T
Given back: 2.24 kcal/mol
